Target: T1, Anti-PSMA Fab (SEQ ID NOs: 19, 20)
T1 construct: Biotinylated and captured on neutravidin coated plates in the phage ELISA; also called 006 PSMA Fab
Experiment: phage binding ELISA; PSMA Fab on plate pre-incubated with PSMA antigen as competitor, anti-M13-HRP detection
Where no end group is shown, it is not given here.
1 means recorded Anti-PSMA Fab signal in the presence of PSMA is 0.07 or above; -1 means it is below 0.07.

1) FEKWCIPSWMCENA [Phage-2030] ... 1
2) EGKWCIPPWMCERN [Phage-2029] ... 1
3) DLPWCIPAWMCMGL [Phage-2039] ... -1
4) MERWCKPAWMCADM (cysteine pairing not given here; also: fused to phage pIII, pIII sequence and linker not given here) [Phage-2038] ... 1
